System name: histamine H3 receptor (Homo sapiens)
Construct: clone 3H3; membranes
Protocol text: Histamine H3 functional antagonist assay ([35S]GTPγS, SPA, membranes of CHO K1 cells expressing the receptor)
Reported conditions: histamine-stimulated GTPγS binding, membranes with human H3
Where a name gives a salt, the structure may show the parent alone.
Measured metric: Ki

Could I get Ki for every one of these entries?
1. O=C(NCCCCl)c1ccc(N2CCC(OC3CCN(C4CCC4)CC3)CC2)cn1 [Example E107, hydrochloride]
2. CC[C@H](C)N1CCC(OC2CCN(c3ccc(C(C)=O)cc3)CC2)CC1
3. CC(C)N1CCC(OC2CCN(c3ccc(C(=O)N4CCCC4)cc3)CC2)CC1
4. O=C(c1ccc(N2CCC(OC3CCN(C4CCC4)CC3)CC2)cc1)N1CCOCC1 [Example E5, hydrochloride]
5. O=C(c1cccc(N2CCC(OC3CCN(C4CCC4)CC3)CC2)n1)N1CCCC1
6. CCNC(=O)c1ccc(N2CCC(OC3CCN(C(C)C)CC3)CC2)cn1
7. N#Cc1ccc(N2CCC(OC3CCN(C4CCC4)CC3)CC2)cc1 [Example E3, hydrochloride]
8. Cc1nc(-c2ccc(N3CCC(OC4CCN(C5CCC5)CC4)CC3)cc2)co1 [Example E16, hydrochloride]

1: ≤ 1 nM; 2: ≤ 1 nM; 3: ≤ 1 nM; 4: ≤ 1 nM; 5: < 10 nM; 6: ≤ 1 nM; 7: ≤ 1 nM; 8: ≤ 1 nM

Could I get Ki for every one of these entries?
1. CC(C)NC(=O)c1cnc(N2CCC(OC3CCN(C4CCC4)CC3)CC2)cn1
2. CC(C)N1CCC(OC2CCN(c3ccc(C#N)cc3)CC2)CC1 [Example E4, hydrochloride]
3. CN(C)C(=O)c1cccc(N2CCC(OC3CCN(C4CCC4)CC3)CC2)n1
4. CC(=O)c1ccc(N2CCC(OC3CCN(C4CCC4)CC3)CC2)c(F)c1
5. CCCNC(=O)c1cnc(N2CCC(OC3CCN(C4CCC4)CC3)CC2)cn1
6. CC(C)N1CCC(OC2CCN(c3ccc(C(=O)N4CCCCC4)nc3)CC2)CC1

1. ≤ 1 nM
2. ≤ 1 nM
3. < 10 nM
4. ≤ 1 nM
5. ≤ 1 nM
6. ≤ 1 nM

Could I get Ki for every one of these entries?
1. CC(C)N1CCC(OC2CCN(c3ccc(C(F)(F)F)cn3)CC2)CC1 [Example E87, hydrochloride]
2. Cc1noc(-c2ccc(N3CCC(OC4CCN(C(C)C)CC4)CC3)cc2)n1 [Example E17, hydrochloride]

< 10 nM
< 0.316 nM

Note Ki for the compound shown: CC(C)N1CCC(OC2CCN(c3ccc(C(F)(F)F)nn3)CC2)CC1 < 10 nM

---

Could you please report measured pKi for the items listed next?
System name: histamine H3 receptor (Homo sapiens, UniProt Q9Y5N1)
Construct: clone 3H3; membranes
Sequence (Q9Y5N1 whole entry): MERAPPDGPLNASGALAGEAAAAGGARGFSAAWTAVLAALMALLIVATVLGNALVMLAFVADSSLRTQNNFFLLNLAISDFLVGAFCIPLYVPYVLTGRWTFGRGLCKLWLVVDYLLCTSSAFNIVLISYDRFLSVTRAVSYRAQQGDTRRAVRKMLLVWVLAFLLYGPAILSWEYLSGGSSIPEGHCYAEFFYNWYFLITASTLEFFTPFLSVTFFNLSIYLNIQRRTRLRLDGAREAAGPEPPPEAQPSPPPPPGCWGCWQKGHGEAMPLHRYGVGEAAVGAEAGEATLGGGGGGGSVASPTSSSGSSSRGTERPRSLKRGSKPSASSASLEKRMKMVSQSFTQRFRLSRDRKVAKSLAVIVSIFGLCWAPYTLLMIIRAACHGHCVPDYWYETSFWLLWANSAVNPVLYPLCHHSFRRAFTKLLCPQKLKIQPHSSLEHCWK
Protocol text: Histamine H3 functional antagonist assay ([35S]GTPγS, SPA, membranes of CHO K1 cells expressing the receptor)
Reported conditions: histamine-stimulated GTPγS binding, membranes with human H3
pKi: −log10 of the molar value. Counter-ions that a name gives are not always drawn.

Recorded pKi, per entry:
Note pKi for the compound shown: CC(C)NC(=O)c1cc(N2CCC(OC3CCN(C4CCC4)CC3)CC2)ccn1 [Example E67] > 8.00

Note pKi for the compound shown: CCNC(=O)c1cnc(N2CCC(OC3CCN(C4CCC4)CC3)CC2)cn1 [Example E71] ≥ 9.00

Note pKi for the compound shown: CC[C@@H](C)N1CCC(OC2CCN(c3ccc(C(C)=O)cc3)CC2)CC1 [Example E102] ≥ 9.00

Note pKi for the compound shown: CC(C)N1CCC(OC2CCN(c3cnc(C(F)(F)F)cn3)CC2)CC1 [Example E85, hydrochloride] ≥ 9.00

Note pKi for the compound shown: CC(C)N1CCC(OC2CCN(c3ccc(C(=O)NCCCCl)nc3)CC2)CC1 [Example E108, hydrochloride] ≥ 9.00

Could I get pKi for every one of these entries?
1. CC(C)N1CCC(OC2CCN(c3cnc(C(F)(F)F)nc3)CC2)CC1 [Example E89]
2. CC(C)N1CCC(OC2CCN(c3cnc(C(=O)NC4CCC4)cn3)CC2)CC1 [Example E79]
3. FC(F)(F)c1ncc(N2CCC(OC3CCN(C4CCC4)CC3)CC2)cn1 [Example E88]
4. O=C(c1ccc(N2CCC(OC3CCN(C4CCC4)CC3)CC2)nc1)N1CCCC1 [Example E56]
5. CNC(=O)c1cnc(N2CCC(OC3CCN(C(C)C)CC3)CC2)cn1 [Example E75]
6. CC(C)N1CCC(OC2CCN(c3ccc(-c4cnco4)cc3)CC2)CC1 [Example E30]

["≥ 9.00", "≥ 9.00", "> 9.50", "≥ 9.00", "≥ 9.00", "≥ 9.00"]

---

System name: histamine H3 receptor (Homo sapiens, UniProt Q9Y5N1)
Construct: clone 3H3; membranes
Protocol text: Histamine H3 functional antagonist assay ([35S]GTPγS, SPA, membranes of CHO K1 cells expressing the receptor)
Reported conditions: histamine-stimulated GTPγS binding, membranes with human H3
pKi: −log10 of the molar value. Structures can show the parent of a compound that is named as a salt.
Could you please report measured pKi for the items listed next?

Note pKi for the compound shown: CC(C)N1CCC(OC2CCN(c3cccc(C(=O)N4CCCC4)n3)CC2)CC1 > 8.00

Note pKi for the compound shown: CC(C)N1CCC(OC2CCN(c3ccc(-c4nnc(-c5ccccc5)o4)cc3)CC2)CC1 ≥ 9.00

Note pKi for the compound shown: CCNC(=O)c1cnc(N2CCC(OC3CCN(C(C)C)CC3)CC2)cn1 ≥ 9.00

Could I get pKi for every one of these entries?
1. CNC(=O)c1ccc(N2CCC(OC3CCN(C4CCC4)CC3)CC2)cn1 [Example E38, hydrochloride]
2. CN(C)C(=O)c1ccc(N2CCC(OC3CCN(C4CCC4)CC3)CC2)cc1

1. > 9.50
2. ≥ 9.00

---

System name: histamine H3 receptor (Homo sapiens, UniProt Q9Y5N1)
Construct: clone 3H3; membranes
Protocol text: Histamine H3 functional antagonist assay ([35S]GTPγS, SPA, membranes of CHO K1 cells expressing the receptor)
Reported conditions: histamine-stimulated GTPγS binding, membranes with human H3
pKi: −log10 of the molar value. Structures can show the parent of a compound that is named as a salt.
Could you please report measured pKi for the items listed next?

Recorded pKi, per entry:
Note pKi for the molecule shown: CC(C)N1CCC(OC2CCN(c3ccc(C(=O)N4CCOCC4)nc3)CC2)CC1 ≥ 9.00

Note pKi for the molecule shown: CC(C)N1CCC(OC2CCN(c3ccc(C(=O)N4CCOCC4)cn3)CC2)CC1 > 8.00

Note pKi for the molecule shown: CNC(=O)c1cccc(N2CCC(OC3CCN(C(C)C)CC3)CC2)n1 > 8.00

Next up:
Note pKi for the molecule shown: FC(F)(F)c1ccc(N2CCC(OC3CCN(C4CCC4)CC3)CC2)cn1 [Example E49, hydrochloride] ≥ 9.00

---

System name: histamine H3 receptor (Homo sapiens, UniProt Q9Y5N1)
Construct: clone 3H3; membranes
Protocol text: Histamine H3 functional antagonist assay ([35S]GTPγS, SPA, membranes of CHO K1 cells expressing the receptor)
Reported conditions: histamine-stimulated GTPγS binding, membranes with human H3
pKi: −log10 of the molar value. Structures can show the parent of a compound that is named as a salt.
Measured metric: pKi

Recorded pKi, per entry:
Note pKi for the molecule shown: CC(=O)c1ccc(N2CCC(OC3CCN(C4CCC4)CC3)CC2)cn1 ≥ 9.00

Note pKi for the molecule shown: CNC(=O)c1ccc(N2CCC(OC3CCN(C4CCC4)CC3)CC2)nc1 ≥ 9.00

Note pKi for the molecule shown: FC(F)(F)c1cnc(N2CCC(OC3CCN(C4CCC4)CC3)CC2)cn1 [Example E84, hydrochloride] ≥ 9.00

Note pKi for the molecule shown: CC(C)N1CCC(OC2CCN(c3ccc(C(=O)OC(C)(C)C)nc3)CC2)CC1 ≥ 9.00

Note pKi for the molecule shown: FC(F)(F)c1ccc(N2CCC(OC3CCN(C4CCC4)CC3)CC2)nn1 [Example E82, hydrochloride] > 9.50

Could I get pKi for every one of these entries?
1. CC(C)NC(=O)c1cnc(N2CCC(OC3CCN(C(C)C)CC3)CC2)cn1
2. Cc1noc(-c2ccc(N3CCC(OC4CCN(C(C)C)CC4)CC3)cc2F)n1 [Example E113, hydrochloride]
3. CC(C)N1CCC(OC2CCN(c3ccc(C(=O)N4CCCC4)cn3)CC2)CC1
4. CC(C)N1CCC(OC2CCN(c3ccc(C(F)(F)F)nc3)CC2)CC1 [Example E81, hydrochloride]
5. CC(=O)c1ccc(N2CCC(OC3CCN(C(C)C)CC3)CC2)cc1
6. CC(C)N1CCC(OC2CCN(c3ccc(C(=O)NC4CCC4)nc3)CC2)CC1

["≥ 9.00", "≥ 9.00", "> 8.00", "≥ 9.00", "≥ 9.00", "≥ 9.00"]

Could I get pKi for every one of these entries?
1. Cc1nc(-c2ccc(N3CCC(OC4CCN(C(C)C)CC4)CC3)cc2)co1
2. N#Cc1ccc(N2CCC(OC3CCN(C4CCC4)CC3)CC2)nc1 [Example E2, hydrochloride]
3. O=C(c1ccc(N2CCC(OC3CCN(C4CCC4)CC3)CC2)cc1)N1CCCC1
4. FC(F)(F)c1ccc(N2CCC(OC3CCN(C4CCC4)CC3)CC2)nc1 [Example E86, hydrochloride]

["> 8.00", "≥ 9.00", "≥ 9.00", "≥ 9.00"]
